- ASSAY_TARGET: PTGER4 (EP4) (Homo sapiens, UniProt P35408)
- Sequence (P35408 whole entry): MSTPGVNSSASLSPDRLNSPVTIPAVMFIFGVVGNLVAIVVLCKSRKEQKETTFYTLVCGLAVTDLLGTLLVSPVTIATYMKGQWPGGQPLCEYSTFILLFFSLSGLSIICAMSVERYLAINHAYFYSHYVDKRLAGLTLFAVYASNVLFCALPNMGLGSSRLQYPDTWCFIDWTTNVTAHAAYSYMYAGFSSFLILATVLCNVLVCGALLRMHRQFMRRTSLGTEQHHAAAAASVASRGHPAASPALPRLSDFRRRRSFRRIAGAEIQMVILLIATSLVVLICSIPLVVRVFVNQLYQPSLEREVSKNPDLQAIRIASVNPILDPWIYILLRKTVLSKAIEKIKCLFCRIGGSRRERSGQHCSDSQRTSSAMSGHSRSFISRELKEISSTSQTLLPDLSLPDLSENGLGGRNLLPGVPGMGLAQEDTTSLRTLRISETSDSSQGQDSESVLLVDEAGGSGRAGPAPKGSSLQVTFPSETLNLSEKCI
- ASSAY_REMARKS: hEP4 b-arrestin assay (PathHunter HEK 293 PTGER4 b-arrestin cells)
- APPLIED_CONDITIONS: antagonistic activity, beta-arrestin assay; read-out: hEP4 b-arr IC50
Output True for records whose IC50 is lower than 0.2 µM, False for records at or above 0.2 µM.

molecule=CCOc1cc(-c2cc(NCCc3c(C)sc4c(C)c(F)ccc34)ncn2)ccc1OCC(=O)O group=True
molecule=Cc1sc2c(C)cc(F)cc2c1CCNc1cc(-c2ccc(C(=O)O)c(OCCO)c2)ncn1 group=False
molecule=Cc1sc2c(C)cc(F)cc2c1CCNc1cc(-c2ccc(-c3noc(=O)[nH]3)cc2)ncn1 group=False
molecule=CCc1cc(-c2cc(NCCc3c(C)sc4c(C)cc(F)cc34)ncn2)ccc1C(=O)O group=False
molecule=CCOc1cc(-c2cc(NCCc3c(C)oc4c(OC)cc(F)c(F)c34)ncn2)sc1C(=O)O group=True
molecule=CSc1cc(-c2cc(NCCc3c(C#N)sc4ccccc34)ncn2)ccc1C(=O)O group=False
molecule=Cc1cc(-c2cc(NCCc3c(C)sc4c(C)cc(F)cc34)ncn2)cc(Cl)c1CC(=O)O group=True
molecule=COc1cc(-c2cc(NCCc3c(C)sc4c(OC)ccc(Cl)c34)ncn2)ccc1C(=O)O group=False
molecule=CCCOc1cc(-c2cc(NCCc3c(C)sc4c(C)c(F)ccc34)ncn2)ccc1C(=O)O group=False
molecule=CSc1cc(-c2cc(NCCc3c(C)sc4c(C)cc(F)cc34)ncn2)ccc1C(=O)O group=False
molecule=Cc1sc2c(C)cccc2c1CCNc1cc(-c2ccc(C(=O)O)c(SC(C)C)c2)ncn1 group=False
molecule=CCOc1cc(-c2cc(NCCc3c(C)sc4c(C)cccc34)ncn2)ccc1CC(=O)O group=False
molecule=CCOc1cc(-c2cc(NCCc3c(C#N)sc4c(C)cc(F)cc34)ncn2)ccc1C(=O)O group=True
molecule=CCOc1cc(-c2cc(NCCc3c(C)oc4c(OC)cc(Cl)cc34)ncn2)ccc1OCC(=O)O group=True
molecule=Cc1sc2c(C)cc(F)cc2c1CCNc1cc(-c2ccc(C(=O)O)c(OC3CC3)c2)ncn1 group=True
molecule=Cc1oc2ccccc2c1CCNc1cc(-c2ccc(C(=O)O)c(SC(C)C)c2)ncn1 group=False

* * *

- ASSAY_TARGET: PTGER2 (EP2) (Homo sapiens)
- Sequence (P43116 whole entry): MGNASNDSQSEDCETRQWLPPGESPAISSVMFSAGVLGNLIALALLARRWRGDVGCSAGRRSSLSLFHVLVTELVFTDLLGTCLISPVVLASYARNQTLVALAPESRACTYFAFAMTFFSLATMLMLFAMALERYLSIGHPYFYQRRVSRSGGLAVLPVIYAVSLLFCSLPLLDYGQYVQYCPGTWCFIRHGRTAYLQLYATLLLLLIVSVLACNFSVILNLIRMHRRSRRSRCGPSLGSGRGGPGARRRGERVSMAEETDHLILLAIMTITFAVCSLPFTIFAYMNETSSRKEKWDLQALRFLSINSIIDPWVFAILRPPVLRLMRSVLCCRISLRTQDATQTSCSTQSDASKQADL
- ASSAY_REMARKS: hEP2 b-arrestin assay (PathHunter HEK 293 PTGER2 b-arrestin cells)
- APPLIED_CONDITIONS: antagonistic activity, beta-arrestin assay; read-out: hEP2 b-arr IC50
Assign labels as follows, please: Y for IC50 below 20 nM; N for IC50 equal to or exceeding 20 nM.

compound="CSc1cc(-c2cc(NCCc3c(C)oc4ccccc34)ncn2)cc(F)c1C(=O)O [Example 49]" group=Y
compound="COc1ccc(F)c2c(CCNc3cc(-c4ccc(C(=O)O)c(OC5CCC5)c4)ncn3)c(C)oc12 [Example 139]" group=N
compound="COc1cc(-c2cc(NCCc3c(C#N)sc4c(C)cc(F)cc34)ncn2)ccc1CC(=O)O [Example 168]" group=N
compound="CCOc1cc(-c2cc(NCCc3c(C)sc4ccccc34)ncn2)ccc1C(=O)O [Example 72]" group=Y
compound="CCCc1cc(-c2cc(NCCc3c(C#N)sc4c(C)cc(F)cc34)ncn2)ccc1C(=O)O [Example 167]" group=Y
compound="CCCCOc1cc(-c2cc(NCCc3c(C)sc4c(C)cc(F)cc34)ncn2)cc(F)c1C(=O)O [Example 144]" group=N
compound="CCCc1cc(-c2cc(NCCc3c(C)sc4c(C)cc(F)cc34)ncn2)ccc1C1(C(=O)O)CC1 [Example 218]" group=N
compound="COc1ccc(F)c2c(CCNc3cc(-c4ccc(C(=O)O)c(OC5CCC5)c4F)ncn3)c(C)sc12 [Example 146]" group=N
compound="COc1cccc2c(CCNc3cc(-c4ccc(C(=O)O)c(SC)c4)ncn3)c(C#N)sc12 [Example 13]" group=N
compound="Cc1sc2c(C)cccc2c1CCNc1cc(-c2ccc3cc(C(=O)O)oc3c2)ncn1 [Example 77]" group=Y
compound="CSc1cc(-c2cc(NCCc3c(C)sc4c(C)c(F)ccc34)ncn2)ccc1C(=O)O [Example 21]" group=Y
compound="CCOc1cc(-c2cc(NCCc3c(C)sc4c(C)cc(F)cc34)ncn2)sc1C(=O)NS(N)(=O)=O [Example 156]" group=Y
compound="Cc1oc2c(C)cc(F)cc2c1CCNc1cc(-c2ccc(C(=O)O)c(OC3CCCC3)c2)ncn1 [Example 154]" group=N
compound="COc1ccc(F)c2c(CCNc3cc(-c4ccc(C(=O)O)c(OC5CC5)c4)ncn3)c(C)sc12 [Example 84]" group=N
compound="Cc1sc2c(C)cc(F)cc2c1CCNc1cc(-c2ccc(C(=O)O)c(OC3CCCC3)c2)ncn1 [Example 152]" group=N
